Tested on: EKVX NSCLC
Experiment: NCI-60 one-dose screen, 48 h
Settings: 10 µM
This is part of a sample that, as a whole, favours compounds with a hit. Of some 83,000 tested, about 20% had one in any assay. Activity calls are given as the source filed them. How the source made its calls: active means growth percent below 10; inactive means the rest.
Field 'call' accepts Y for active, N for inactive

Input: Short answer needed: outcome of this test for CC1=C2C(=C[C@@](C)(COS(C)(=O)=O)[C@@H]2O)C(=O)[C@](C)(O)C12CC2 ?
Output: Y

Input: Tell me the recorded outcome of this test for C[C@@H]1CCC/C=C/[C@H]2C[C@@H](O)C[C@@H]2[C@@H](O)/C=C/C(=O)O1 .
Output: N

Input: // return assay outcome for C/C=C\C(=O)O[C@@H]1CC2O[C@@H]3C=C(C)C(=O)C[C@]3(C)[C@]1(C)[C@]21CO1
Output: Y

Input: GET /call?item= COc1cccc2c1cc([N+](=O)[O-])c1c(C(=O)O)cc3c(c12)OCO3 returns the recorded outcome of this test.
Output: N

Input: Would you mind telling me which call this test gave CC1=C(CCC=NNC(N)=O)C2=C(C)C3(CC3)[C@@](C)(O)C(=O)C2=C1 ?
Output: Y
